- systemUnderTest: T1, recombinant human IL13RA2 (human, UniProt Q14627 27-343)
- T1 construct: Coating antigen of the phage ELISA screen; The immunogen was ACRO Cat. No. IL2-H52H5; also called antigen proteins
- T1 sequence (looked up): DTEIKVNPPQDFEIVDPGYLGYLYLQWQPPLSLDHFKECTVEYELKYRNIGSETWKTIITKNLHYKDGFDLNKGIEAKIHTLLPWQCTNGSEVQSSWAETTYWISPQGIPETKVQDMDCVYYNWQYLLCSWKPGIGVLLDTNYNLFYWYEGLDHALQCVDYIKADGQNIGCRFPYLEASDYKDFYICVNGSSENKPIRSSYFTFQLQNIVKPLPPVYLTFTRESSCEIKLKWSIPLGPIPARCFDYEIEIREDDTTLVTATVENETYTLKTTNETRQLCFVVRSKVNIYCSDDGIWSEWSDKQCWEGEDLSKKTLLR
- protocol: phage ELISA on plates coated with recombinant human IL13RA2, anti-M13-HRP, A450
quantityMeasured: binding result

Answered examples (5):
1. VHH1353 (VHH) VHH: EVQLVESGGGSVQAGGSLRLSCAASGYTSSTNCMGWFRQAPGKEREGVASIRGTGGSTYYADSVKGRFTISRDDGKNTLYLQMNSLKPEDTAMYYCAAATGTSFSEARCVTAPPYKYPYWGQGTQVTVSS; binds
2. VHH2110 (VHH) VHH: QVKLEESGGGSVQAGGSLRLSCAASGIPTRTLFMGWFRQAPGKEREEVARISDNGNTGYADFVKGRFTISKDNSKNTLYLQMSSLKPDDTAMYYCSARRASYSATVLWGQGTQVTVSS; binds
3. VHH1366 (VHH) VHH: QVKLEESGGGSVEAGGSLKLSCAGFGDMFSSCGMGWYRQAPGKEREMVSRISPRGTSITIDSVRGRFTISRDNAKNTLALEMNSLKIEDTAVYYCAAGGDSASRTPRCRSLNWGQGTQVTVSS; binds
4. VHH1343 (VHH) VHH: QVKLEESGGGSVQAGGSLKLSCAASGYNFSKCGMGWFRRALREERELVAEISNDGTTTYDDSVKGRFTISRDNVKNTVYLQMNNLKTEDTAVYYCASRNPCGLLWGQGTQVTVSS; binds
5. VHH1339 (VHH) VHH: EVQLVESGGGSVQAGGSLKLSCAASGDIFSMCGMGWYRQAPGKQREMVSRISPRGTAIYPDSLKGRFTVSRDNAKNTLYLQMNSLNTEDTAVYYCAAGGDSASRTPHCRSLNWGQGTQVTVSS; binds

Item under review: VHH1354 (VHH) VHH: AVQLVDSGGGLVQPGGSLRLSCAASGFTFSTYGMSWVRQPPGKGLEWVSGISPGGDHTTYADSVKGRFTISRDNAKNTLYLQLSSLKTEDTAMYYCTTVPGRSRYGNYNPRGQGTQVTVSS . Reported binding result? binds
